The origin of these recorded values is patent US12509457B2.

// reported Ki per item
tested_on: SIK1 (Homo sapiens)
Sequence (P57059 whole entry): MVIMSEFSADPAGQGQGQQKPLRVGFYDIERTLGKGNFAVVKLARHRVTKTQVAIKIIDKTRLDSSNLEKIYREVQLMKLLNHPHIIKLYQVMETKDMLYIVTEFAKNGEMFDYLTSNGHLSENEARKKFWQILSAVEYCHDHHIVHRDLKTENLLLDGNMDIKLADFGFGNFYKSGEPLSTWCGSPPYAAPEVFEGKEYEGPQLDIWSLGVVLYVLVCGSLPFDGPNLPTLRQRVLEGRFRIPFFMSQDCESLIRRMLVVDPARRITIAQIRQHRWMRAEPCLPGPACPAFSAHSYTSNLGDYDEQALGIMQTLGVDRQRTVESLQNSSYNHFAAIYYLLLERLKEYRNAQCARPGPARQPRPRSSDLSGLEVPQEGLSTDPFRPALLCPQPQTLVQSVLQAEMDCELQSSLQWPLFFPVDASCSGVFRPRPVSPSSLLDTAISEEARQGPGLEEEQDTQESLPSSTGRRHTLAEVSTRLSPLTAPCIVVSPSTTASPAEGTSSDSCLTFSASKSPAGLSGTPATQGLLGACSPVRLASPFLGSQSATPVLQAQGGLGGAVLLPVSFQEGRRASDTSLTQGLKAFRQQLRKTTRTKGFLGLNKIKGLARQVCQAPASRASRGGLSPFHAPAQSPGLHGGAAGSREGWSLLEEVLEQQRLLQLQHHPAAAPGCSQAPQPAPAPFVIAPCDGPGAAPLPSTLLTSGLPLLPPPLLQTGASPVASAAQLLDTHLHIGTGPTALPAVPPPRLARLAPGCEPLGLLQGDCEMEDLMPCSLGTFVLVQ
measurement_description: SIK1 kinase assay, IMAP fluorescence polarization
Format: biochemical
condition_set: 50 or 100 μM ATP; average; read-out: SIK1-AVERAGE Ki
State just the number; it will be interpreted in nM.

>>> readout_value("Cc1cccc(F)c1N1Cc2cnc(N)cc2N(C2CNC2)C1=O")
7.92

(Q) Which value of Ki has been reported for "Cc1cccc(F)c1N1Cc2cnc(N)nc2N([C@@H]2CCCNC2)C1=O" in the records?
(A) 1.3

(Q) Try the compound "Cc1cccc(F)c1N1Cc2cnc(N)nc2N([C@H]2CCCNCC2)C1=O"
(A) 0.407

(Q) Try the compound Cc1cccc(F)c1N1Cc2cnc(N)cc2N([C@H]2CCC[C@@H](N(C)C)C2)C1=O (relative stereo)
(A) 1.96

(Q) Try the compound Cc1cccc(F)c1N1Cc2cnc(N)cc2N([C@H]2CCC[C@@H](N)C2)C1=O (relative stereo)
(A) 0.604

(Q) Try the compound "Cc1cccc(F)c1N1Cc2cnc(N)nc2N(CC2CCNCC2)C1=O"
(A) 0.822

(Q) Try the compound "CN[C@H]1CC[C@@H](N2C(=O)N(c3c(C)cccc3F)Cc3cnc(N)cc32)CC1"
(A) 2.2

(Q) Try the compound "CN[C@H]1CC[C@@H](N2C(=O)N(c3c(C)cccc3F)Cc3cnc(N)nc32)CC1"
(A) 1.38

* * *

tested_on: Src (Homo sapiens)
measurement_description: Src kinase assay, IMAP fluorescence polarization
Format: biochemical
condition_set: 50 or 100 μM ATP; average; read-out: Src-AVERAGE Ki
Class (by Ki) -- interval 1 (below 40 nM), interval 2 (40 nM to below 400 nM), interval 3 (400 nM or more)

Some entries whose results are on file:
>>> class_name("Cc1cccc(F)c1N1Cc2cnc(N)cc2N([C@@H]2CCCNCC2)C1=O [Example 51]")
"interval 2"
>>> class_name("Cc1cccc(F)c1N1Cc2cnc(N)cc2N([C@@H]2CCCN(C)C2)C1=O [Example 81]")
"interval 2"
>>> class_name("Cc1cccc(F)c1N1Cc2cnc(N)cc2N([C@H]2CCC[C@@H](N)C2)C1=O (relative stereo) [Example 56]")
"interval 1"

(Q) // bin(item) where item = Cc1cccc(F)c1N1Cc2cnc(N)cc2N([C@@H]2CCN(C)C2)C1=O [Example 80]
(A) interval 3

(Q) Try the compound Cc1cccc(F)c1N1Cc2cnc(N)cc2N([C@@H]2CCCN(C)CC2)C1=O [Example 84]
(A) interval 2

(Q) Try the compound Cc1cccc(F)c1N1Cc2cnc(N)cc2N([C@H]2CCCN(C)C2)C1=O [Example 82]
(A) interval 2

(Q) Try the compound Cc1cccc(F)c1N1Cc2cnc(N)cc2N([C@H]2CCCCNC2)C1=O [Example 53]
(A) interval 3

(Q) Try the compound Cc1cccc(F)c1N1Cc2cnc(N)nc2N(C2CN(C)C2)C1=O [Example 21]
(A) interval 3

(Q) Try the compound Cc1cccc(F)c1N1Cc2cnc(N)nc2N([C@@H]2CCCN(C)C2)C1=O [Example 42]
(A) interval 3

* * *

tested_on: Src (Homo sapiens, UniProt P12931)
Sequence (P12931 whole entry): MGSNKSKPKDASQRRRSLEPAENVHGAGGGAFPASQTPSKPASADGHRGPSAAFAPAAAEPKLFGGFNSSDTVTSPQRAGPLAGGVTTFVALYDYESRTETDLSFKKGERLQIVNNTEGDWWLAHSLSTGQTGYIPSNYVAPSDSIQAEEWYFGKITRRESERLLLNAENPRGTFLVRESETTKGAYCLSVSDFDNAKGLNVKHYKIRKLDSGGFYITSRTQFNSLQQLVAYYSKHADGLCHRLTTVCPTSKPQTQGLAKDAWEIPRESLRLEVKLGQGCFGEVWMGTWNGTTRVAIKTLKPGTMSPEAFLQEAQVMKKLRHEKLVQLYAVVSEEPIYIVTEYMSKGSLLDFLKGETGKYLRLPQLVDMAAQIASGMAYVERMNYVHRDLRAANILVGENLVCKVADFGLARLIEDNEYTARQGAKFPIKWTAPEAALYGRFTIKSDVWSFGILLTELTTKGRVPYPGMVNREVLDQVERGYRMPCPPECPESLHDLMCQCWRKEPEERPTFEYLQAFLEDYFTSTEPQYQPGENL
measurement_description: Src kinase assay, IMAP fluorescence polarization
Assay type: biochemical
condition_set: 50 or 100 μM ATP; average; read-out: Src-AVERAGE Ki
// reported Ki per item

// known answers, use as guide
>>> readout_value("Cc1cccc(F)c1N1Cc2cnc(N)cc2N(C2CN(C)C2)C1=O")
"> 1000 nM"
>>> readout_value("Cc1cccc(F)c1N1Cc2cnc(N)cc2N([C@H]2CCCNC2)C1=O")
"> 1000 nM"
>>> readout_value("Cc1cccc(Cl)c1N1Cc2cnc(N)nc2N(C2CNC2)C1=O")
"96.1 nM"
>>> readout_value("Cc1cccc(F)c1N1Cc2cnc(N)cc2N([C@@H]2CCCNC2)C1=O")
"132 nM"

(Q) Lab note: need Ki with Src (Homo sapiens, UniProt P12931) for entry "Cc1cccc(F)c1N1Cc2cnc(N)nc2N([C@@H]2CCCCN(C)C2)C1=O" , please look it up.
(A) 678 nM
